Tested on: S. aureus
Assay: MIC microdilution, gram positive
Format: cell-based, Staphlococcus aureus
Conditions: Table 2, Gram Positive
metric-name: MIC S. aureus

Item N#Cc1ccc(NC(=O)c2cc(C(=O)c3ccc4ccccc4c3)ccc2O)cc1 : provide MIC S. aureus
6.3 micrograms/ml

###

Let's go through some MIC measurements on P. acnes 11828 together.
Value expressed in µg/mL; do not type the unit.

O=C(Nc1cccc(C(F)(F)F)c1)c1cc(C(=O)c2cccc3ccccc23)ccc1O ... 0.4
N#Cc1cccc(NC(=O)c2cc(C(=O)c3cccc4ccccc34)ccc2O)c1 ... 6.3
N#Cc1cccc(NC(=O)c2cc(C(=O)c3ccc(-c4ccccc4)cc3)ccc2O)c1 [BPAmC, reference compound] ... 12.5
O=C(c1ccc(-c2ccccc2)cc1)c1ccc(O)c(C(=O)Nc2cccc(C(F)(F)F)c2)c1 [BPAmF, reference compound] ... 0.4

Item CCCCc1ccc(C(=O)c2ccc(O)c(C(=O)Nc3cccc(C(F)(F)F)c3)c2)cc1 [BBAmF, reference compound] : provide MIC
0.8
